- Tested On: NRAS G12C (Homo sapiens (Human), UniProt P01111+P62937, G12C)
- Sequence (P01111 whole entry G12C): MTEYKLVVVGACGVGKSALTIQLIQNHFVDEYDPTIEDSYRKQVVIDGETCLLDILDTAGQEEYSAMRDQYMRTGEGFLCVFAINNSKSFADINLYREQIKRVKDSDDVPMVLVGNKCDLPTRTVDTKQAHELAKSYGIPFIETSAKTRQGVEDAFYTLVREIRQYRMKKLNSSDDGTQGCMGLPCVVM
- Sequence (P62937 whole entry): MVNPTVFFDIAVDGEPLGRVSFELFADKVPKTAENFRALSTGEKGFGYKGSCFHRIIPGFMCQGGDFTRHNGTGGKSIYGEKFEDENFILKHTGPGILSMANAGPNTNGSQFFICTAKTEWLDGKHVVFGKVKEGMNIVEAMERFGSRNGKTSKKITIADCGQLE
- Assay Explanation: Ras-Raf (BRAF RBD) disruption / FRET / MOA assay, NRAS G12C
- Format: biochemical
- Measurement Parameters: read-out: IC50* NRAS G12C FRET data
Readout Type: IC50

{"Compound": "C=CC(=O)N1CC[C@H](C(=O)N2CCCCC[C@H]2C(=O)N[C@H]2Cc3nc(cs3)-c3ccc4c(c3)c(c(-c3cccnc3[C@H](C)OC)n4CC)CC(C)(C)COC(=O)[C@@H]3CCCN(N3)C2=O)C1 (atropisomer, axis not shown) [Example A495]", "IC50": "100 to 1000 nM"}

As a next step, examine the compound that follows.
Notebook: C=CC(=O)N1CCC2(CC1)OCN([C@H](C(=O)N[C@H]1Cc3cccc(c3)-c3ccc4c(c3)c(c(-c3cccnc3[C@H](C)OC)n4CC)CC(C)(C)COC(=O)[C@@H]3CCCN(N3)C1=O)C(C)C)C2=O (atropisomer, axis not shown) [Example A457] , IC50 read as 100 to 1000 nM
